TARGET_OR_TEST_SYSTEM: Substance-K receptor (Homo sapiens)
Sequence (P21452 whole entry): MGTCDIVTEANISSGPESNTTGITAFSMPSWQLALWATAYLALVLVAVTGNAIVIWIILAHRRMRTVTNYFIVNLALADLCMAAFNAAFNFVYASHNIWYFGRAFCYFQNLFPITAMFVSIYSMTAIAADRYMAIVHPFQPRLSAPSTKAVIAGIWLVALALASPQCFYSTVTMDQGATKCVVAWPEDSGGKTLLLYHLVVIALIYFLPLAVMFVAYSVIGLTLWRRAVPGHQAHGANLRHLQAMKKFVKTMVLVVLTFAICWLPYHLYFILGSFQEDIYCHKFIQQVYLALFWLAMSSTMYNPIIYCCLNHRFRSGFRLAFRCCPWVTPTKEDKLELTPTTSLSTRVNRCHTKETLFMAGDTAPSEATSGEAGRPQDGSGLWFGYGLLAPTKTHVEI
EXPERIMENTAL_READOUT: Ki
Answers without a unit are incomplete; give the number and then its unit.

Ki of COC1(C[S@@+]([O-])c2ccccc2)CCN(CCc2c[nH]c3ccc(F)cc23)CC1 , assay on Substance-K receptor (Homo sapiens), is 0.316 nM

---

TARGET_OR_TEST_SYSTEM: Substance-K receptor (Rattus norvegicus)
Sequence (P16610 whole entry): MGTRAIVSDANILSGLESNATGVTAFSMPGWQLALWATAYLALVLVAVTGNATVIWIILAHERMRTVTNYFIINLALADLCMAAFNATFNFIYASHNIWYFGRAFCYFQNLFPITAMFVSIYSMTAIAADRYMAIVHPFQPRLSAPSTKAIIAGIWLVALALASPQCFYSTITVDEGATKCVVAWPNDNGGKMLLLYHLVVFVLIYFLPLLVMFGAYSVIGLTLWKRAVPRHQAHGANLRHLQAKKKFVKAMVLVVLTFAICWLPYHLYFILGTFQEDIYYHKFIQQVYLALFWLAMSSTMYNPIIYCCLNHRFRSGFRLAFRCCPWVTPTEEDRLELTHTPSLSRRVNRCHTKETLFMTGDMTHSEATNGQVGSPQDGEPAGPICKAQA
EXPERIMENTAL_READOUT: Ki (nM)
All answers are understood in nM, so give the number only.

Field: example entries. Status: answers known.
N#Cc1ccc2[nH]cc(CCN3CCC(NC(=O)c4ccccc4)CC3)c2c1 :: 1580
COC1(C[S@@+]([O-])c2ccccc2)CCN(CCc2c[nH]c3ccc(F)cc23)CC1 :: 0.1
[O-][S@+](CC1(O)CCN(CCc2c[nH]c3ccc(F)cc23)CC1)c1ccccc1 (stereo in doubt; 8) :: 0.316
Cc1ccccc1OCC1(O)CCN(CCc2c[nH]c3ccc(F)cc23)CC1 :: 31.6
[O-][S+](CC1(O)CCN(CCc2c[nH]c3ccc(F)cc23)CC1)c1ccccc1 (stereo in doubt; 6) :: 0.501
O=S(=O)(CC1(O)CCN(CCc2c[nH]c3ccc(F)cc23)CC1)c1ccccc1 :: 31.6
[O-][S@+](CC1(O)CCN(CCc2c[nH]c3ccc(F)cc23)CC1)c1ccccc1 (stereo in doubt; 5) :: 3.98

Okay, now this compound:
Ki for [O-][S+](CC1(O)CCN(CCc2c[nH]c3ccc(F)cc23)CC1)c1ccccc1 (stereo in doubt; 9) is 7.94
